- test.name: qHTS assay for identifying genotoxic compounds that show differential cytotoxicity against isogenic chicken DT40 cell lines with known DNA damage response pathways - Rev3 mutant cell line (AID 743014); further: nearly all actives have a fitted effect of over 55% in size
- experimental.parameters: chicken DT40 Rev3-/- viability, CellTiter-Glo, 40 h; series mostly up to 68.4 µM
Results filed as inconclusive are left out. Activity calls are given as the source filed them. The call rests on the fitted dose curve; in most records, active means well fitted cell-killing curve with a large enough effect in the repeat runs; inconclusive means weak or mixed curves, or effect the other way; inactive means no such curve, though single readings can be large or run the other way.
// one of active, inactive, no free text

Consider the following illustrative entries.
compound.structure.string: O=C(O)c1cc(=O)c2ccccc2o1
group.label: inactive
--
compound.structure.string: ClCCl
group.label: inactive

# fetch the recorded call for CN(C)Cc1cc(C(C)(C)C)c(O)c(C(C)(C)C)c1 here active

# fetch the recorded call for CCO[Si](OCC)(OCC)OCC here inactive

# fetch the recorded call for CC(=O)c1ccc(C(C)=O)cc1 here inactive

# fetch the recorded call for NC(=S)NC(N)=S here active

# fetch the recorded call for Nc1nc2c(ncn2COCCO)c(=O)[nH]1 here active

# fetch the recorded call for CC[N+](CC)(CC)CCOC(=O)C(C1CCCC1)C1CCCC1 here active

# fetch the recorded call for Cc1ccc(C(=O)O)cc1 here inactive

# fetch the recorded call for CC(C)=CCC1=C(O)c2ccccc2C(=O)C1=O here active

# fetch the recorded call for C#C[C@]1(O)CC[C@H]2[C@@H]3[C@H](C)CC4=C(CCC(=O)C4)[C@H]3CC[C@@]21C here active

# fetch the recorded call for CCCCCCCCCCCCOC(=O)c1ccc(O)cc1 here inactive

# fetch the recorded call for C=C(C)c1cccc(C(=C)C)c1 here inactive

# fetch the recorded call for CC1(C)CC(O)CC(C)(C)N1 here inactive

---

- test.name: qHTS RealTime-Glo MT Cell Viability Assay in HepG2 cells - 24 hour (AID 1224867); further: nearly all actives have a fitted effect of over 50% in size
- experimental.parameters: RealTime-Glo luminescence; series mostly up to 76.8 µM
Records with an inconclusive call do not appear. The source made the active and inactive calls. Calls come from the whole dose curve; as a rule, active = well fitted cell-killing curve with a large enough effect in the repeat runs; inconclusive = weak or mixed curves; inactive = flat fitted curve, though single readings scatter.
// one of active, inactive, no free text

Consider the following illustrative entries.
compound: COCCOc1cc2cc(C(=O)NC3CCN(C(C)C)CC3)n(CC(=O)Nc3ccc(Cl)cn3)c2cn1
group.label: inactive
--
compound: O=C(O)[C@H](O)[C@@H](O)[C@H](O[C@@H]1O[C@H](CO)[C@H](O)[C@H](O)[C@H]1O)[C@H](O)CO
group.label: inactive
--
compound: S=c1nccc[nH]1
group.label: inactive
--
compound: Cl[Si](Cl)(c1ccccc1)c1ccccc1
group.label: inactive
--
compound: CCCCC(CC)CN1CN(CC(CC)CCCC)CC(C)(N)C1 (configuration not stated)
group.label: active
--
compound: Cc1cc(-n2nc3ccc(Cl)cc3n2)c(O)c(C(C)(C)C)c1
group.label: inactive

# fetch the recorded call for CCCCC/C=C\C/C=C\CCCCCCCC(=O)O here inactive

# fetch the recorded call for Cc1ccc(O)c(N)c1 here inactive

# fetch the recorded call for Cc1c(C)c([N+](=O)[O-])c(C(C)(C)C)c([N+](=O)[O-])c1C here inactive

# fetch the recorded call for Cc1cccc2cccnc12 here inactive

# fetch the recorded call for Cc1ccc(-c2ccccc2)cc1 here inactive

# fetch the recorded call for CN(C)Cc1ccccc1O here inactive

---

- test.name: A CellTox Green Cytotoxicity Assay to monitor cytotoxicity in HepG2 cells - 32 hour (AID 1224883); further: nearly all actives have a fitted effect of over 50% in size
- experimental.parameters: CellTox Green fluorescence; series mostly up to 76.8 µM
Results filed as inconclusive are left out. Activity calls are given as the source filed them. Calls come from the whole dose curve; as a rule, active = well fitted activation curve with a large enough effect in the repeat runs; inconclusive = weak or mixed curves; inactive = flat fitted curve, though single readings scatter.
// one of true for active, false for inactive, no free text

Consider the following illustrative entries.
compound: CCCCN(CCCC)CC(O)c1cc(Cl)cc2c1-c1ccc(Cl)cc1/C2=C/c1ccc(Cl)cc1 (stereo not drawn)
group.label: true
--
compound: OCC(F)(F)F
group.label: false
--
compound: Oc1cc(Cl)cc(Cl)c1Cl
group.label: false
--
compound: c1cnccn1
group.label: false
--
compound: c1ccc(SSc2ccccc2)cc1
group.label: false
--
compound: COc1ccc2cc1Oc1ccc(cc1)C[C@H]1c3c(cc4c(c3Oc3cc5c(cc3OC)CCN(C)[C@@H]5C2)OCO4)CCN1C
group.label: true
--
compound: C1CCC(SSC2CCCCC2)CC1
group.label: false

Alright, here's another compound for you.
# fetch the recorded call for CC1(C)CC(O)CC(C)(C)N1 here false

---

- test.name: qHTS assay to identify small molecule antagonists of the sonic hedgehog signaling (Shh) pathway - cell viability counter screen (AID 1259367); further: nearly all actives have a fitted effect of over 55% in size
- experimental.parameters: NIH/3T3 Gli1-Luc viability, CellTiter-Fluor, 24 h; series mostly up to 92.4 µM
Results filed as inconclusive are left out. Calls of active or inactive are those of the source. Calls follow the shape of the dose curve; as a rule, active = well fitted cell-killing curve with a large enough effect in the repeat runs; inconclusive = weak or mixed curves, or effect the other way; inactive = no such curve, though single readings can be large or run the other way.
// one of True (active), False (inactive), no free text

Consider the following illustrative entries.
compound: C=CC(=O)Nc1cc2c(Nc3ccc(F)c(Cl)c3)ncnc2cc1OCCCN1CCOCC1
group.label: True

compound: CCc1oc2ccccc2c1C(=O)c1cc(I)c(O)c(I)c1
group.label: False

compound: CC1(C)CC(O)CC(C)(C)N1
group.label: False

compound: CCCCCCCCCCCC(=O)OCC(C)OC(=O)CCCCC(=O)O (centres undefined)
group.label: False

compound: O=S(=O)(O)c1ccc(Nc2nc(Nc3ccc(/C=C/c4ccc(Nc5nc(Nc6ccc(S(=O)(=O)O)cc6)nc(N(CCO)CCO)n5)cc4S(=O)(=O)O)c(S(=O)(=O)O)c3)nc(N(CCO)CCO)n2)cc1
group.label: False

compound: CCCCCCCC/C=C\CCCCCCCCN
group.label: False

compound: OCC(F)(F)F
group.label: False

compound: CC[N+](CC)(CC)CCOC(=O)C(C1CCCC1)C1CCCC1
group.label: False

# fetch the recorded call for O=C(O)Cc1ccccc1Nc1c(Cl)cccc1Cl here False

# fetch the recorded call for CC(N=C(NC#N)Nc1ccncc1)C(C)(C)C (centres undefined) here False

# fetch the recorded call for ClCCl here False

# fetch the recorded call for O[C@@H]([C@H](O)[C@H](O)CBr)[C@H](O)CBr here False

# fetch the recorded call for CCCCCCC1CCCC(=O)O1 (centres undefined) here False

# fetch the recorded call for CC(C)NC[C@@H](O)COc1ccc(CC(N)=O)cc1 here False

# fetch the recorded call for Cc1nc2n(c(=O)c1CCN1CCC(c3noc4cc(F)ccc34)CC1)CCCC2 here False

# fetch the recorded call for COc1ccc2c(c1)c(CC(=O)OC/C=C(\C)CC/C=C(\C)CCC=C(C)C)c(C)n2C(=O)c1ccc(Cl)cc1 here False

# fetch the recorded call for Cc1c(N)cccc1C(F)(F)F here False

# fetch the recorded call for Cc1cc(C(C)(C)C)cc(C)c1CC1=NCCN1 here False

# fetch the recorded call for CC(C(=O)O)c1ccc2c(c1)[nH]c1ccc(Cl)cc12 (centres undefined) here False

---

- test.name: qHTS assay to identify small molecule agonists of the androgen receptor (AR) signaling pathway in the presence of an antagonist - cell viability counter screen (AID 1259379); further: nearly all actives have a fitted effect of over 25% in size
- experimental.parameters: MDA-kb2 viability, CellTiter-Fluor, 16 h; series mostly up to 92.4 µM
Inconclusive results are not listed. Active and inactive are the calls of the source. Calls come from the whole dose curve; as a rule, active = well fitted cell-killing curve with a large enough effect in the repeat runs; inconclusive = weak or mixed curves, or effect the other way; inactive = flat fitted curve, though single readings scatter.
// one of active, inactive, no free text

Consider the following illustrative entries.
compound: CCCCCCC1CCCC(=O)O1 (configuration not stated)
group.label: inactive
--
compound: O=C1c2ccccc2C(=O)N1SC1CCCCC1
group.label: inactive
--
compound: C#C[C@]1(O)CC[C@H]2[C@@H]3[C@H](C)CC4=C(CCC(=O)C4)[C@H]3CC[C@@]21C
group.label: inactive
--
compound: COc1ccc2cc1Oc1ccc(cc1)C[C@H]1c3c(cc4c(c3Oc3cc5c(cc3OC)CCN(C)[C@@H]5C2)OCO4)CCN1C
group.label: active
--
compound: Cc1cc(C(C)(C)C)cc(C)c1CC1=NCCN1
group.label: inactive
--
compound: O=C(/C=C/c1ccc(O)c(O)c1)O[C@@H](C(=O)O)[C@@H](OC(=O)/C=C/c1ccc(O)c(O)c1)C(=O)O
group.label: inactive
--
compound: Cc1nc(-c2ccc(Cl)cc2)oc1COC(C)(C)C(=O)O
group.label: inactive
--
compound: Nc1ccc(C(=O)O)c(O)c1
group.label: inactive
--
compound: O=S(=O)(O)c1ccc(N=Nc2c(O)ccc3ccccc23)cc1
group.label: active
--
compound: Cc1ccc(C(=O)O)cc1
group.label: inactive

# fetch the recorded call for c1ccsc1 here inactive

# fetch the recorded call for CCCCCCCCCCC[C@@H](C[C@@H]1OC(=O)[C@H]1CCCCCC)OC(=O)[C@H](CC(C)C)NC=O here inactive

---

- test.name: qHTS RealTime-Glo MT Cell Viability Assay in HEK293 cells - 32 hour (AID 1224868); further: nearly all actives have a fitted effect of over 50% in size
- experimental.parameters: RealTime-Glo luminescence; series mostly up to 76.8 µM
- Excerpt: National Center for Advancing Translational Sciences [NCATS] NIH Chemical Genomics Center [NCGC] U.S. Environmental Protection Agency [EPA] National Institutes of Environmental Health Sciences [NIEHS] National Toxicology Program [NTP] U.S. Food and Drug Administration [FDA] Measure of cell viability is critical in the cell-base assay. Analysis of cell viability is necessary for the characterization of cell responses to cytotoxic drugs and environmental stress. […]
Inconclusive results are not listed. Calls of active or inactive are those of the source. Calls come from the whole dose curve; as a rule, active = well fitted cell-killing curve with a large enough effect in the repeat runs; inconclusive = weak or mixed curves, or effect the other way; inactive = flat fitted curve, though single readings scatter.
// one of 1 (yes) = active, 0 (no) = inactive, no free text

Consider the following illustrative entries.
compound: CCN(CC)C(=O)c1cc(S(=O)(=O)Cc2ccccc2)c(N2CCC(c3ccccc3)CC2)cc1N(CC)CCN(C)C
group.label: 1 (yes)

compound: Cc1cc(C(C#N)c2ccc(Cl)cc2)c(Cl)cc1NC(=O)c1cc(I)cc(I)c1O (centres undefined)
group.label: 0 (no)

compound: CC1=CCC(=C(C)C)CC1
group.label: 0 (no)

Alright, here's another compound for you.
# fetch the recorded call for Cc1ccc(C(C)C)cc2c(C)ccc1-2 here 0 (no)
